# assay.explanation: chemical genetic growth profiling, strain panel (AID 1159580);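 also: tested at 20 µM; growth read once vehicle control cultures reached saturation at 30 °C; 1 = growth at the plate median or of vehicle wells; lower values mean less growth of the strain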
# condition.label: S. cerevisiae deletion strains, growth OD, locus YHR142W, strain chs7, active compounds read low
Screen size: about 5,500 compounds; about 2,000 (36%) were called active. Inconclusive results (about 18%) are left out. This is one part of the list.
Parameter: normalized growth. Scope: all listed entries.
Respond numerically, and do not add a unit to the figure.

Answered cases to consult:
{"compound": "Cc1ncc(CNC(=O)N(CCCl)N=O)c(N)n1", "normalized growth": 1.01}
{"compound": "CCN1CCCC(OC(=O)C(c2ccccc2)c2ccccc2)C1 (stereo not drawn)", "normalized growth": 0.978}
{"compound": "CC[C@@H]1C=C/C=C/C[C@H](C)[C@@H](O)[C@](C)(O)C(=O)[C@H](C)[C@@H](O)[C@H](C)C(=O)[C@H](C)[C@@H](O)[C@H](C)/C=C/C(=O)O[C@H]2[C@@H](C)[C@@H](CC1)O[C@@]1(CC[C@@H](C)[C@@H](C[C@H](C)O)O1)[C@@H]2C", "normalized growth": 1.03}
{"compound": "CCCc1cc(C(N)=S)ccn1", "normalized growth": 0.981}
{"compound": "Clc1ccc(C(OCCN2CCCCC2)c2ccccc2)cc1 (stereo not drawn)", "normalized growth": 1.01}
{"compound": "CCC[C@H](N[C@@H](C)C(=O)N1[C@H](C(=O)O)C[C@@H]2CCCC[C@@H]21)C(=O)OCC", "normalized growth": 1.03}
{"compound": "CNCCC(Oc1ccc(C(F)(F)F)cc1)c1ccccc1 (stereo not drawn)", "normalized growth": 0.992}

Next item in the queue.
Ask: So what does the record say about normalized growth for COc1cc([C@@H]2c3cc4c(cc3C(OC3O[C@@H]5COC(C)O[C@H]5[C@H](O)[C@H]3O)C3COC(=O)[C@@H]32)OCO4)cc(OC)c1O (stereo partly drawn) ?
Result: 1.06

---

# assay.explanation: chemical genetic growth profiling, strain panel (AID 1159580);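 also: tested at 20 µM; growth read once vehicle control cultures reached saturation at 30 °C; 1 = growth at the plate median or of vehicle wells; lower values mean less growth of the strain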
# condition.label: S. cerevisiae deletion strains, growth OD, locus YDR195W, strain ref2
The whole screen tested about 5,500 compounds, of which about 2,000 (36%) were called active. About 18% were inconclusive and are not listed. The list shows a part of the results.
Listed below: normalized growth values for each entry.

Known results for compounds:
{"compound": "CCCCNC(=O)NS(=O)(=O)c1ccc(C)cc1", "normalized growth": "1.01 (inactive)"}
{"compound": "Clc1ccc(C(OCCN2CCCCC2)c2ccccc2)cc1 (centres undefined)", "normalized growth": "1.07 (inactive)"}

Ask: Entry C=C1C2CC[C@@]3(C)[C@H](c4ccoc4)OC(=O)C[C@]13O[C@H]1CC(=O)C(C)(C)[C@H](C(OC(C)=O)C(=O)OC)[C@@]21C (some centres undefined) : reported normalized growth = ?
Result: 1.02 (inactive)

Ask: Please do the same for CN1CC(=O)N=C1N as well.
Result: 0.969 (inactive)

Ask: Repeat for the following compound: C/C=C(\C)C(=O)O[C@H]1C[C@@H](OC(C)=O)[C@@]2(C(=O)OC)CO[C@@H]3C2[C@]12CO[C@](O)(C(=O)OC)[C@H]2[C@](C)(C12O[C@@]1(C)[C@H]1C[C@@H]2OC2OC=C[C@@]21O)[C@@H]3O (some centres undefined)
Result: 0.938 (inactive)

Ask: Request: O=C(Oc1cc(OC(=O)c2ccccc2)c2c(c1)O[C@H](c1ccc(OC(=O)c3ccccc3)c(OC(=O)c3ccccc3)c1)[C@@H](OC(=O)c1ccccc1)C2)c1ccccc1
Result: 0.953 (inactive)

Ask: What do you get for CN1C2C[C@H](OC(=O)[C@H](CO)c3ccccc3)C[C@H]1[C@@H](O)C2 ?
Result: 1.01 (inactive)

Ask: Then what about the compound Clc1ccc(C(c2ccc(Cl)cc2)C(Cl)(Cl)Cl)cc1 ?
Result: 1.04 (inactive)

Ask: Same for CNCCC(Oc1ccc(C(F)(F)F)cc1)c1ccccc1 (centres undefined)
Result: 0.995 (inactive)

Ask: Please do the same for Cc1ccccc1C(OCCN(C)C)c1ccccc1 (centres undefined) as well.
Result: 0.996 (inactive)

Cited source for all entries: PubChem BioAssay AID1159580
